targetSystem: T1, human IL-10 receptor (hIL-10R alpha and beta chains) on HEK-Blue IL-10 reporter cells (human, UniProt Q13651 22-578; Q08334 20-325)
T1 sequence 1: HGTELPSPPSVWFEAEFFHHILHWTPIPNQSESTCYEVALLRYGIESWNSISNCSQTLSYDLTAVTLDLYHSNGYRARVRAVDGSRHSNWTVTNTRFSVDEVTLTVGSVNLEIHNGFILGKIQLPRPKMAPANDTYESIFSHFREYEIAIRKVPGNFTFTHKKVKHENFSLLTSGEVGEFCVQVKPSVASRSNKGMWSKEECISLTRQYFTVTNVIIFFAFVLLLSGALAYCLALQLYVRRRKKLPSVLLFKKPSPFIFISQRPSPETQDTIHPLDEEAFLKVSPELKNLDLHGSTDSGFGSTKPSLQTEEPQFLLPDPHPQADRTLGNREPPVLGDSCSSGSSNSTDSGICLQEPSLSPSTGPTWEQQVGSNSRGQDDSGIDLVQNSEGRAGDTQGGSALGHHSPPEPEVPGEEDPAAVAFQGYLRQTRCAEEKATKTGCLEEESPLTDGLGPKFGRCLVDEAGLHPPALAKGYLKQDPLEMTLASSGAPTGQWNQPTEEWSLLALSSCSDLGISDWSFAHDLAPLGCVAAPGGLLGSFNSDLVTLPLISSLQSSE
T1 sequence 2: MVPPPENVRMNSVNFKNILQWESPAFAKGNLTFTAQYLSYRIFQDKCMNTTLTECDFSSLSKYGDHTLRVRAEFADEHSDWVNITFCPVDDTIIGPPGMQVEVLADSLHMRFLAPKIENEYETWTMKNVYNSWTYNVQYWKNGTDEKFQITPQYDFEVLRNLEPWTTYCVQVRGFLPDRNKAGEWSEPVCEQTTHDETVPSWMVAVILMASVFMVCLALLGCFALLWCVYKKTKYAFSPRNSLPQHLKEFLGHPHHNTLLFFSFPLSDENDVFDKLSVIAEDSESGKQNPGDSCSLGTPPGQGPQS
protocol: cell-based or functional assay
Rule for this label: TRUE means Abs 630 (25 nM) is less than 0.5 Abs 630; FALSE means Abs 630 (25 nM) is at least 0.5 Abs 630.

Reference set, count: 7
Data request: Consider IL10R binding molecule of SEQ ID NO: 274 (bispecific antibody) QVQLQESGGGSVQAGGSLRLSCAASGYTYSMYCMGWFRQAPGKEREGVAQINSDGSTSYADSVKGRFTISKDNAKNTLYLQMNSLKPEDTAMYYCAADSRVYGGSWYERLCGPYTYEYNYWGQGTQVTVSSGGGSQVQLQESGGGSVEAGGSLRLSCAASGYTHSSYCMGWFRQAPGKEREGVAAIDVDGSTTYADSVKGRFTISKDNAKNTLYLQMNSLKPEDTGMYYCAAEFADCSSNYFLPPGAVRYWGQGTQVTVSSASHHHHHH . Does its Abs 630 (25 nM) lie strictly below 0.5 Abs 630?
Data returned: TRUE

Data request: Consider IL10R binding molecule of SEQ ID NO: 297 (bispecific antibody) QVQLQESGGGSVQAGGSLRLSCGASGYTYSSYCMGWFRQVPGKEREGVAVIDSDGSTSYADSVKGRFTISKDNGKNTLYLQMNSLKPEDTAMYYCAADLGHYRPPCGVLYLGMDYWGKGTQVTVSSGGGSQVQLQESGGGSVQTGGSLRLSCAASGYTYLRGCMGWFRQAPGKEREGVAVMDVVGDRRSYIDSVKGRFTISRDNAANSVYLQMDNLKPEDTAMYYCTAGPNCVGWRSGLDYWGQGTQVTVSSASHHHHHH . Does its Abs 630 (25 nM) lie strictly below 0.5 Abs 630?
Data returned: TRUE

Data request: Consider IL10R binding molecule of SEQ ID NO: 352 (bispecific antibody) QVQLQESGGGSVQTGGSLRLSCAASGYTYLRGCMGWFRQAPGKEREGVAVMDVVGDRRSYIDSVKGRFTISRDNAANSVYLQMDNLKPEDTAMYYCTAGPNCVGWRSGLDYWGQGTQVTVSSGGGSQVQLQESGGGSVQAGGSLRLSCGASGYTYSSYCMGWFRQVPGKEREGVAVIDSDGSTSYADSVKGRFTISKDNGKNTLYLQMNSLKPEDTAMYYCAADLGHYRPPCGVLYLGMDYWGKGTQVTVSSASHHHHHH . Does its Abs 630 (25 nM) lie strictly below 0.5 Abs 630?
Data returned: FALSE

Data request: Consider IL10R binding molecule of SEQ ID NO: 272 (bispecific antibody) QVQLQESGGGSVQAGGSLRLSCAASGYTYSMYCMGWFRQAPGKEREGVAQINSDGSTSYADSVKGRFTISKDNAKNTLYLQMNSLKPEDTAMYYCAADSRVYGGSWYERLCGPYTYEYNYWGQGTQVTVSSGGGSQVQLQESGGGSVQAGGSLRLSCAASRYTYNSYCMGWFRQAPGKEREGVATIDSDGMTRYADSVKGRFTISKDNAKNTLYLQMNSLKPEDTAMYYCAADADCTIAAMTTNPLGQGTQVTVSSASHHHHHH . Does its Abs 630 (25 nM) lie strictly below 0.5 Abs 630?
Data returned: TRUE

Data request: Consider IL10R binding molecule of SEQ ID NO: 340 (bispecific antibody) QVQLQESGGGSVQAGGSLRLSCAASGYSYSSYCMGWFRQAPGKEREGVATIDSDGMTRYADSVKGRFTISKDNAKNTLYLQMNSLKPEDTAMYYCAAPLYDCDSGAVGRNPPYWGQGTQVTVSSGGGSQVQLQESGGGSVQAGGSLRLSCAASRYLYSIDYMAWFRQSPGKEREPVAVIYTASGATFYPDSVKGRFTISQDNAKMTVYLQMNSLKSEDTAMYYCAAVRKTDSYLFDAQSFTYWGQGTQVTVSSASHHHHHH . Does its Abs 630 (25 nM) lie strictly below 0.5 Abs 630?
Data returned: TRUE

Data request: Consider IL10R binding molecule of SEQ ID NO: 328 (bispecific antibody) QVQLQESGGGSVQAGGSLRLSCTVSRYTASVNYMGWFRQAPGKEREGVATIFTGAGTTYYANSVKGRFTISRDNAKNTAYLQMNSLKPEDTAIYYCAVDFRGGLLYRPAYEYTYRGQGTQVTVSSGGGSQVQLQESGGGSVQAGGSLRLSCAASGYTYSMYCMGWFRQAPGKEREGVAQINSDGSTSYADSVKGRFTISKDNAKNTLYLQMNSLKPEDTAMYYCAADSRVYGGSWYERLCGPYTYEYNYWGQGTQVTVSSASHHHHHH . Does its Abs 630 (25 nM) lie strictly below 0.5 Abs 630?
Data returned: TRUE

Data request: Consider IL10R binding molecule of SEQ ID NO: 267 (bispecific antibody) QVQLQESGGGSVQAGGSLRLSCAASRFTYSSYCMGWFRQAPGKEREGVASIDSDGSTSYTDSVKGRFTISKDNAKNTLYLQMNSLKPEDTAMYYCALDLMSTVVPGFCGFLLSAGMDYWGKGTQVTVSSGGGSQVQLQESGGGSVEAGGSLRLSCAASGYTHSSYCMGWFRQAPGKEREGVAAIDVDGSTTYADSVKGRFTISKDNAKNTLYLQMNSLKPEDTGMYYCAAEFADCSSNYFLPPGAVRYWGQGTQVTVSSASHHHHHH . Does its Abs 630 (25 nM) lie strictly below 0.5 Abs 630?
Data returned: FALSE

Next:
Data request: Consider IL10R binding molecule of SEQ ID NO: 299 (bispecific antibody) QVQLQESGGGSVQAGGSLRLSCAASGYSNCSYDMTWYRQAPGKEREFVSAIHSDGSTRYADSVKGRFFISQDNAKNTVYLQMNSLKPEDTAMYYCKTDPLHCRAHGGSWYSVRANYWGQGTQVTVSSGGGSQVQLQESGGGSVQAGGSLRLSCAASGYTYSSYCMGWFRQAPGKEREGVAHIDSDGSTSYADSVKGRFTISKDNAKNTLYLQMNSLKPEDTAMYYCAADPIPGPGYCDGGPNKYWGQGTQVTVSSASHHHHHH . Does its Abs 630 (25 nM) lie strictly below 0.5 Abs 630?
Data returned: TRUE

Reference for the values: patent US20250163167A1
